# ASSAY PROTOCOL: Tolerability in Sprague-Dawley rats: liver function (Example 44)
# Format: in vivo
# RECORDED CONDITIONS: 50 mg/kg s.c. twice per week for 6 weeks, plasma
Strand notation (5' to 3'): a small letter for the sugar, then the base; units joined by * are phosphorothioate-linked, units joined directly phosphodiester-linked; [ ] holds rarer units or linkages, { } end groups; capitals alone tell only the bases. e = 2'-O-(2-methoxyethyl) (MOE); [5mC] = 5-methylcytosine; d = 2'-deoxy (DNA)
Collected ALT values appear next to each entry.
REPORTED METRIC: ALT (IU/L)

| SUBSTANCE | REPORTED METRIC | VALUE |
| --- | --- | --- |
| ISIS 449711: 3-8-3, 4-8-4, 2-10-2, 3-10-3 or 4-10-4 MOE microwalk gapmer (Table 46) (antisense eA*e[5mC]*dA*dG*dT*dT*dT*d[5mC]*dT*dG*dG*d[5mC]*eA*eG) | ALT | 32 |
| ISIS 449709: 3-8-3, 4-8-4, 2-10-2, 3-10-3 or 4-10-4 MOE microwalk gapmer (Table 46) (antisense eG*e[5mC]*eA*e[5mC]*dA*dG*dT*dT*dT*d[5mC]*dT*dG*dG*d[5mC]*eA*eG*eG*e[5mC]) | ALT | 63 |
| ISIS 449708: 3-8-3, 4-8-4, 2-10-2, 3-10-3 or 4-10-4 MOE microwalk gapmer (Table 46) (antisense eA*e[5mC]*eA*dG*dT*dT*dT*d[5mC]*dT*dG*dG*e[5mC]*eA*eG) | ALT | 25 |

---

# Tested on: human Factor 11 mRNA
# ASSAY PROTOCOL: Dose-dependent inhibition of human Factor 11 in HepB3 cells, lipofectin (Example 7)
# Type: cell-based
# RECORDED CONDITIONS: 18.75 nM, ~16 hours
REPORTED METRIC: percent inhibition of Factor 11 mRNA relative to untreated control cells (%)

| SUBSTANCE | MEASURED TARGET | READOUT UNITS | VALUE |
| --- | --- | --- | --- |
| 416999 (antisense GCACAGTTTCTGGCAGGCCT; 2-13-5 gapmer chemistry, further chemistry not given here) [compound 416999] | human Factor 11 mRNA | % | 60 |
| 416925 (antisense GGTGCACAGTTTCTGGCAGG; 3-14-3 gapmer chemistry, further chemistry not given here) [compound 416925] | human Factor 11 mRNA | % | 59 |
| 416850 (antisense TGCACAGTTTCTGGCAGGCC; 5-10-5 gapmer, further chemistry not given here) [compound 416850] | human Factor 11 mRNA | % | 56 |
| 416826 (antisense ATGCCCTTCATGTCTAGGTC; 5-10-5 gapmer, further chemistry not given here) [compound 416826] | human Factor 11 mRNA | % | 55 |
| 417002 (antisense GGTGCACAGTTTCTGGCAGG; 2-13-5 gapmer chemistry, further chemistry not given here) [compound 417002] | human Factor 11 mRNA | % | 57 |
| 416864 (antisense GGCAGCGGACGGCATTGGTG; 5-10-5 gapmer, further chemistry not given here) [compound 416864] | human Factor 11 mRNA | % | 66 |
| 416892 (antisense GCCCTTCATGTCTAGGTCCA; 3-14-3 chimeric gapmer, further chemistry not given here) [compound 416892] | human Factor 11 mRNA | % | 68 |
| 416825 (antisense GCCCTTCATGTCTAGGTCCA; 5-10-5 gapmer, further chemistry not given here) [compound 416825] | human Factor 11 mRNA | % | 36 |

---

# ASSAY PROTOCOL: Hematology assays in cynomolgus monkeys (Example 46)
# Assay type: in vivo
# RECORDED CONDITIONS: Day 31
Strand notation (5' to 3'): a small letter for the sugar, then the base; units joined by * are phosphorothioate-linked, units joined directly phosphodiester-linked; [ ] holds rarer units or linkages, { } end groups; capitals alone tell only the bases. e = 2'-O-(2-methoxyethyl) (MOE); [5mC] = 5-methylcytosine; d = 2'-deoxy (DNA)
# binarize neutrophils: threshold 90% inclusive, high side 1.0, low side 0.0

| SUBSTANCE | ANSWER LABEL |
| --- | --- |
| ISIS 445522: 5-8-5 or 6-8-6 MOE microwalk gapmer (Table 44) (antisense eG*e[5mC]*eA*e[5mC]*eA*dG*dT*dT*dT*d[5mC]*dT*dG*dG*e[5mC]*eA*eG*eG*e[5mC]) | 0.0 |
| ISIS 449711: 3-8-3, 4-8-4, 2-10-2, 3-10-3 or 4-10-4 MOE microwalk gapmer (Table 46) (antisense eA*e[5mC]*dA*dG*dT*dT*dT*d[5mC]*dT*dG*dG*d[5mC]*eA*eG) | 0.0 |
| ISIS 416858: MOE gapmer, nucleobases 1275 to 1318 of SEQ ID NO: 1 (Table 8) (antisense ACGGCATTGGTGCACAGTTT; MOE gapmer, wing and gap sizes not given here) | 0.0 |
| ISIS 416850: MOE gapmer, nucleobases 1275 to 1318 of SEQ ID NO: 1 (Table 8) (antisense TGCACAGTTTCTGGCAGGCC; MOE gapmer, wing and gap sizes not given here) | 1.0 |
| ISIS 449708: 3-8-3, 4-8-4, 2-10-2, 3-10-3 or 4-10-4 MOE microwalk gapmer (Table 46) (antisense eA*e[5mC]*eA*dG*dT*dT*dT*d[5mC]*dT*dG*dG*e[5mC]*eA*eG) | 0.0 |
| ISIS 449709: 3-8-3, 4-8-4, 2-10-2, 3-10-3 or 4-10-4 MOE microwalk gapmer (Table 46) (antisense eG*e[5mC]*eA*e[5mC]*dA*dG*dT*dT*dT*d[5mC]*dT*dG*dG*d[5mC]*eA*eG*eG*e[5mC]) | 0.0 |
| ISIS 449710: 3-8-3, 4-8-4, 2-10-2, 3-10-3 or 4-10-4 MOE microwalk gapmer (Table 46) (antisense e[5mC]*eA*e[5mC]*dA*dG*dT*dT*dT*d[5mC]*dT*dG*dG*d[5mC]*eA*eG*eG) | 1.0 |
| ISIS 445531: 5-8-5 or 6-8-6 MOE microwalk gapmer (Table 44) (antisense eG*eG*e[5mC]*eA*eT*dT*dG*dG*dT*dG*d[5mC]*dA*d[5mC]*eA*eG*eT*eT*eT) | 1.0 |

---

Collected aPTT ratio relative to PBS group values appear next to each entry.
# Test system: blood coagulation
# ASSAY PROTOCOL: PT and aPTT assay in cynomolgus monkeys (Example 46)
# Format: in vivo
# RECORDED CONDITIONS: Day 38; platelet poor plasma; relative to PBS group
Strand notation (5' to 3'): a small letter for the sugar, then the base; units joined by * are phosphorothioate-linked, units joined directly phosphodiester-linked; [ ] holds rarer units or linkages, { } end groups; capitals alone tell only the bases. e = 2'-O-(2-methoxyethyl) (MOE); [5mC] = 5-methylcytosine; d = 2'-deoxy (DNA)

| SUBSTANCE | aPTT ratio relative to PBS group |
| --- | --- |
| ISIS 449707: 3-8-3, 4-8-4, 2-10-2, 3-10-3 or 4-10-4 MOE microwalk gapmer (Table 46) (antisense e[5mC]*eA*e[5mC]*eA*dG*dT*dT*dT*d[5mC]*dT*dG*dG*e[5mC]*eA*eG*eG) | 0.99 |
| ISIS 416850: MOE gapmer, nucleobases 1275 to 1318 of SEQ ID NO: 1 (Table 8) (antisense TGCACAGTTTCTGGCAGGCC; MOE gapmer, wing and gap sizes not given here) | 1.25 |
| ISIS 449708: 3-8-3, 4-8-4, 2-10-2, 3-10-3 or 4-10-4 MOE microwalk gapmer (Table 46) (antisense eA*e[5mC]*eA*dG*dT*dT*dT*d[5mC]*dT*dG*dG*e[5mC]*eA*eG) | 1.06 |
| ISIS 445522: 5-8-5 or 6-8-6 MOE microwalk gapmer (Table 44) (antisense eG*e[5mC]*eA*e[5mC]*eA*dG*dT*dT*dT*d[5mC]*dT*dG*dG*e[5mC]*eA*eG*eG*e[5mC]) | 1.32 |
| ISIS 449711: 3-8-3, 4-8-4, 2-10-2, 3-10-3 or 4-10-4 MOE microwalk gapmer (Table 46) (antisense eA*e[5mC]*dA*dG*dT*dT*dT*d[5mC]*dT*dG*dG*d[5mC]*eA*eG) | 0.93 |

---

Collected Percent change in spleen weight values appear next to each entry.
# ASSAY PROTOCOL: Tolerability in CD1 mice: organ weight (Example 33)
# Format: in vivo
# RECORDED CONDITIONS: 50 mg/kg s.c. twice a week, 6 weeks, vs PBS control, normalized to body weight
REPORTED METRIC: Percent change in spleen weight

| SUBSTANCE | REPORTED METRIC | VALUE |
| --- | --- | --- |
| 416850 (antisense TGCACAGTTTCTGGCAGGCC; 5-10-5 gapmer, further chemistry not given here) [compound 416850] | Percent change in spleen weight | +48% |
| 416826 (antisense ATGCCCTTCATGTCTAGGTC; 5-10-5 gapmer, further chemistry not given here) [compound 416826] | Percent change in spleen weight | +22% |
| 416892 (antisense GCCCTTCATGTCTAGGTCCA; 3-14-3 chimeric gapmer, further chemistry not given here) [compound 416892] | Percent change in spleen weight | +65% |
| 417002 (antisense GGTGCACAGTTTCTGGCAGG; 2-13-5 gapmer chemistry, further chemistry not given here) [compound 417002] | Percent change in spleen weight | +108% |
| 416838 (antisense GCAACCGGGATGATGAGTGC; 5-10-5 gapmer, further chemistry not given here) [compound 416838] | Percent change in spleen weight | +9% |
| 416864 (antisense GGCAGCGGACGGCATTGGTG; 5-10-5 gapmer, further chemistry not given here) [compound 416864] | Percent change in spleen weight | −6% |
| 417003 (antisense TGGTGCACAGTTTCTGGCAG; 2-13-5 gapmer chemistry, further chemistry not given here) [compound 417003] | Percent change in spleen weight | +98% |
| 416999 (antisense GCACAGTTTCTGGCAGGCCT; 2-13-5 gapmer chemistry, further chemistry not given here) [compound 416999] | Percent change in spleen weight | +38% |
| 416825 (antisense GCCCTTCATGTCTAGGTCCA; 5-10-5 gapmer, further chemistry not given here) [compound 416825] | Percent change in spleen weight | +21% |
| 416925 (antisense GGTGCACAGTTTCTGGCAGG; 3-14-3 gapmer chemistry, further chemistry not given here) [compound 416925] | Percent change in spleen weight | +78% |
| 416858 (antisense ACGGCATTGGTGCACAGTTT; 5-10-5 gapmer, further chemistry not given here) [compound 416858] | Percent change in spleen weight | +28% |
